B1: Myocardin-related transcription factor A, residues 341 to 383; numbered along this chain, Q969V6 (parent)
chain: GALPANLDDMKVAELKQELKLRSLPVSGTKTELIERLRAYQDQ

Variants of: B1
test_name: abundance fitness (aPCA) (normalised: wild type 0, dead -1); higher = more abundant; growth selection in yeast, the domain comes from the species named
run_parameters: Homo sapiens
// -1 strictly below -0.01 in abundance fitness; 1 otherwise

[[record]]
mutation_annotation = "A39L"
group = 1

[[record]]
mutation_annotation = "T31P"
group = -1

[[record]]
mutation_annotation = "R22T"
group = -1

[[record]]
mutation_annotation = "T31G"
group = -1

[[record]]
mutation_annotation = "Y40E"
group = 1

[[record]]
mutation_annotation = "E32N"
group = -1

[[record]]
mutation_annotation = "K30W"
group = -1

[[record]]
mutation_annotation = "Y40H"
group = 1

[[record]]
mutation_annotation = "E35S"
group = 1

[[record]]
mutation_annotation = "L37W"
group = -1

[[record]]
mutation_annotation = "E35F"
group = -1


Source listed as the Human Domainome abundance scans (Beltran et al. 2025).
